system: mouse long-term hematopoietic stem cells; experiment: Reproducibility and concentration dependence test: 1-week culture of sorted Hoxb5-tri-mCherry mouse long-term hematopoietic stem cells, flow cytometry; format: cell-based; conditions: Table 4; compound 0.3 μM; day 7 of culture; n=2
Could you label it 1 (yes) if measured KLS-positive rate is 20% or higher, and 0 (no) otherwise?

// below: answered molecules
C[C@H]1[C@H](CN)O[C@@H]2O[C@@]3(C)CC[C@H]4[C@H](C)CC[C@@H]1[C@@]24OO3: 0 (no)
C[C@H]1[C@H](NS(C)(=O)=O)O[C@@H]2O[C@@]3(C)CC[C@H]4[C@H](C)CC[C@@H]1[C@@]24OO3: 0 (no)
C[C@H]1[C@H](C(=O)O)O[C@@H]2O[C@@]3(C)CC[C@H]4[C@H](C)CC[C@@H]1[C@@]24OO3: 0 (no)

Query block: Reported KLS-positive rate at or above 20%? C[C@H]1[C@@H](C)O[C@@H]2O[C@@]3(C)CC[C@H]4[C@H](C)CC[C@@H]1[C@@]24OO3
Result block: 1 (yes)

Query block: Reported KLS-positive rate at or above 20%? C[C@H]1[C@@H](OCC(F)(F)F)O[C@@H]2O[C@@]3(C)CC[C@H]4[C@H](C)CC[C@@H]1[C@@]24OO3
Result block: 1 (yes)

Query block: Reported KLS-positive rate at or above 20%? C[C@H]1[C@@H](F)O[C@@H]2O[C@@]3(C)CC[C@H]4[C@H](C)CC[C@@H]1[C@@]24OO3
Result block: 0 (no)

// provenance: patent US20230094952A1
